Please go through the items and note down their pKi.
# target or test system: T1, muPA-Y99A (murine)
# T1 construct: site directed mutant of full length muPA; numbers count on: chymotrypsin numbering; Two-chain form after plasmin; source: HEK293 6E, transfected; treated with plasmin
# method summary: enzyme inhibition (steady state, chromogenic substrate S-2444); about 2 nM enzyme (purified or conditioned medium of transfected cells) pre-incubated 15 min with varied peptide in HBS (10 mM HEPES pH 7.4, 140 mM NaCl) with 0.1% BSA at 37°C; substrate about KM; fit for competitive inhibition; highest peptide concentration 400 µM
Bridge positions count the residues as written; N and C are the ends. Square brackets hold non-standard residues; d marks the D form. Ends that are not written are not given here. Ala(1-amidino-4-piperidyl) = N=C(N)N1CCC(C[C@H](N)C(=O)O)CC1; Phe(4-guanidino) = N=C(N)Nc1ccc(C[C@H](N)C(=O)O)cc1
Reminder that pKi means the negative base-10 logarithm of the concentration expressed in mol/L.

**Q:** Given the entry CPAYS[Ala(1-amidino-4-piperidyl)]YLAC (disulfide 1-10; not fully specified) [Mupain-1-16 D9A] , report its measured pKi.
**A:** 5.87

**Q:** Also, CPAYS[Phe(4-guanidino)]YLDC (disulfide 1-10) [mupain-1-12] please.
**A:** 5.28

**Q:** Also, CPAYS[Ala(1-amidino-4-piperidyl)]YLDC (disulfide 1-10; not fully specified) [mupain-1-16] please.
**A:** 5.91
